The reported numbers originate from PubChem BioAssay (NCI).

Below, each entry is listed alongside its reported growth inhibition.
# procedureText: NCI Yeast Anticancer Drug Screen. Data for the sgs1 mgt1 strain (AID 161);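 further: 0% = growth of cultures given vehicle only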
# conditionParameters: S. cerevisiae sgs1 mgt1 strain, at 5.0 µM (retest, dose inferred, filed as 0.5), active compounds read high
The panel holds about 79,000 compounds, 15% with a hit somewhere; the sample as a whole holds those more often.
Write it as a number; the unit % goes unstated.

Reference set (3 entries):
>>> quantitativereadout("O=C(O)/C(=C\\c1ccc(Cl)cc1)c1ccc(C(F)(F)F)cc1[N+](=O)[O-]")
0
>>> quantitativereadout("O=C(O)c1ccc2c(Br)ccc3c2c1CC3")
-6
>>> quantitativereadout("O=Cc1c(I)cc(I)c(O)c1I")
79

# input for lookup
q: Provide measured growth inhibition value, entry: Nc1ccccc1SC(C[N+](=O)[O-])c1ccc2c(c1)OCO2 (centres undefined)
a: 69

====

Listed below: growth inhibition values for each entry.
# procedureText: NCI Yeast Anticancer Drug Screen. Data for the rad50 strain (AID 155);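 further: 0% = growth of vehicle-only cultures of the same strain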
# conditionParameters: S. cerevisiae rad50 strain growth inhibition; at 5.0 µM (retest, dose inferred, filed as 0.5); active compounds read high
This is part of a sample that, as a whole, favours compounds with a hit. Of some 79,000 tested, about 15% had one in any assay.
Unit % implied. Number only.

>>> quantitativereadout("O=C1/C(=C/c2ccccc2)CNC/C1=C\\c1ccccc1")
-11
>>> quantitativereadout("[N-]=[N+]=Nc1ccnc2ccc(C3CCCCC3)cc12")
-8
>>> quantitativereadout("O=S(=O)(CCCCl)SCCCCl")
11
>>> quantitativereadout("CCCCCCCCCCCCCCC[C@@H](O)C[N+](C)(C)CCO")
28
>>> quantitativereadout("CC(CC(C)[C@H]1CCC2[C@H]3C(CC[C@@]21C)[C@@]1(C)CCC(O)C[C@H]1C[C@@H]3O)C(=O)O (some centres not stated)")
10
>>> quantitativereadout("Cc1cccc(Cc2ccc(Cl)cc2)c1O")
4

Note: attention shifts to another entry.
q: Find the measured growth inhibition of "COc1cc(CC(=O)O)c(Cc2ccc3c(c2)Cc2ccccc2-3)cc1OC" and report it.
a: -7

====

# procedureText: NCI Yeast Anticancer Drug Screen. Data for the rad50 strain (AID 155);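 further: 0% = growth of vehicle-only cultures of the same strain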
# conditionParameters: S. cerevisiae rad50 strain growth inhibition; at 50.0 µM; active compounds read high
# Protocol: Growth inhibition of yeast strains with defined genetic alterations is measured as a screen for potential anti-cancer activity. Selected strains with alterations in DNA damage repair or cell cycle control were exposed to compounds and growth inhibition was measured relative to vehicle treated controls. The strain used in this assay is rad50
The panel holds about 79,000 compounds, 15% with a hit somewhere; the sample as a whole holds those more often.
Label scheme for growth inhibition: lower than 60% is false, 60% and above is true.

>>> label("NNc1cc(C(F)(F)F)nc2ccccc12")
"false"
>>> label("CC(CCC(=O)O)(c1cc(Br)c(O)c(Br)c1)c1cc(Br)c(O)c(Br)c1")
"true"
>>> label("COc1cccc2c1N[S@](=O)S2")
"true"
>>> label("O=C(OC1C2CCC2C2CC21)c1cc([N+](=O)[O-])cc([N+](=O)[O-])c1 (centres undefined)")
"false"
>>> label("O=c1c2[nH]c3cccc(Cl)c3c2cnn1-c1ccc(F)cc1")
"true"
>>> label("CCOC(=O)/C(=C\\N1C(=O)/C(=C\\C(C)=C\\c2ccccc2)SC1=S)C(=O)c1ccccc1")
"false"
>>> label("CC(/C=C/c1cccc(C)c1)=N\\NC(N)=S")
"false"
>>> label("CN(/N=C/c1ccc([N+](=O)[O-])o1)C(N)=O")
"true"

Query compound follows.
q: Please check the record Cc1ccccc1C(CC(=O)O)C(C)c1ccccc1 (centres undefined) and state if its growth inhibition is at or above 60%.
a: false

====

# procedureText: NCI Yeast Anticancer Drug Screen. Data for the cln2 rad14 strain (AID 165);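 further: 0% = growth equal to vehicle treated cultures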
# conditionParameters: S. cerevisiae cln2 rad14 strain, at 5.0 µM (retest, dose inferred, filed as 0.5), active compounds read high
About 79,000 compounds went through this panel and 15% of them were active in at least one assay; those are over-represented in the sample as a whole.
valueType: growth inhibition (%)
Your answer is read as %, so omit the unit and give the number.

Examples from the recorded data:
>>> quantitativereadout("CC12CCC(=O)C=C1CCC1C2CCC2(C)C(C(=O)Cn3cnc4c(=S)nc[nH]c43)CCC12 (centres undefined)")
-26
>>> quantitativereadout("CC(NNC(=S)N1CCCC1)c1cccnn1 (centres undefined)")
96
>>> quantitativereadout("CN(C)S(=O)(=O)c1cc(Cl)ccc1NN")
-41

// next entry
q: Determine from records and report growth inhibition for CSC(=S)CC(O)[C@@H]1CC2c3ccccc3C1c1ccccc12 (some centres undefined)
a: 2

====

# procedureText: NCI Yeast Anticancer Drug Screen. Data for the rad50 strain (AID 155);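 further: 0% = growth of vehicle-only cultures of the same strain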
# conditionParameters: S. cerevisiae rad50 strain growth inhibition; at 50.0 µM (retest, dose inferred, filed as 5.0); active compounds read high
This is part of a sample that, as a whole, favours compounds with a hit. Of some 79,000 tested, about 15% had one in any assay.
valueType: growth inhibition (%)
The answer is to be given in %; state only the numeric part.

>>> quantitativereadout("CCOC(=O)C(C=O)(C=O)c1ccccc1")
42
>>> quantitativereadout("NCC(O)CSc1ccc(Cl)c(Cl)c1 (centres undefined)")
11

Shift focus to the following entry.
q: Quote growth inhibition reported for "CCOC(=O)c1c(O)c(C)c(=O)n2c1[nH]c1cc(C)c(C)cc12" please.
a: 12

====

# procedureText: NCI Yeast Anticancer Drug Screen. Data for the mec2-1 strain (AID 157)
# conditionParameters: S. cerevisiae mec2-1 strain, at 50.0 µM (retest, dose inferred, filed as 5.0)
The panel holds about 79,000 compounds, 15% with a hit somewhere; the sample as a whole holds those more often. Calls of active or inactive are those of the source. No stated cut-off is given here; in the data, active means growth inhibition above about 70%; inactive means the rest.
Write down one outcome, taken from active, inactive

Worked cases, answers included:
>>> label("Nc1ccc(/C=C2/c3ccccc3-c3nc4ccccc4cc32)cc1")
"inactive"
>>> label("CCN(CC)CCNc1ccc2ncn3c4c(OC)ccc(=O)c4c(O)c1c23")
"inactive"
>>> label("[O-]c1c2cc(-[n+]3c(-c4ccccc4)cc(-c4ccccc4)cc3-c3ccccc3)cc1CO[C@@H](c1ccccc1)[C@H](c1ccccc1)OCc1cccc(n1)CO[C@@H](c1ccccc1)[C@H](c1ccccc1)OC2")
"active"
>>> label("O=C(O)C1C2CC3CC(C2)CC1C3 (stereo unspecified)")
"inactive"
>>> label("O=CC(O)C(O)C(O)C(O)C(=O)NCCCCCCCCCCCCNC(=O)C(O)C(O)C(O)C(O)C=O (stereo unspecified)")
"inactive"

q: Assay result, entry "N/C(CC(=O)NOC(=O)c1ccccc1)=N/OC(=O)c1ccccc1" — outcome?
a: active

q: What call does the record list for CC1=CC(=O)c2c(O)c3c(c(O)c2C1=O)C1C(O)C(C3=O)C23C(=O)c4c(O)c(C)cc(O)c4C(O)=C2C(=O)CC(O)C13 (stereo unspecified) ?
a: active

q: Hey, what did the test say about "N#Cc1c([N+](=O)[O-])cc(C(F)(F)F)cc1[N+](=O)[O-]" ?
a: active

q: Fill in: this test's call for CSC(=S)CC(O)[C@@H]1CC2c3ccccc3C1c1ccccc12 (stereo partly specified) is ___
a: active

q: What classification did "Oc1ccc2oc3ccccc3c2c1" end up with in this test?
a: active

q: Tell me the recorded outcome of this test for CC(NNC(=S)N1CCCC1)c1cccnn1 (stereo unspecified) .
a: active

q: Please indicate how the test categorized Oc1ccc(C2CCc3ccccc32)cc1 (stereo unspecified) .
a: active

q: Fill in: this test's call for "Cc1ccc([P+](CCN2C(=O)c3ccccc3C2=O)(c2ccc(C)cc2)c2ccc(C)cc2)cc1" is ___
a: active

q: Recorded test call requested for "[O-]/[N+](O)=C\c1ccccn1"
a: inactive

q: Called result for "CCCC(=O)Nc1cc([N+](=O)[O-])ccc1O"
a: active

q: Entry Cc1ccc[n+](CC(=O)C2CCC3C4CC=C5CC(O)CCC5(C)C4CCC23C)c1 (stereo unspecified) : call = ?
a: inactive

q: # lookup: test call for "CNC(=S)N(C)C(=S)Nn1c(=O)c(C)nn(C)c1=S"
a: active

q: Fill in: this test's call for "c1ccc2c(c1)Nc1ccc3ccccc3c1S2" is ___
a: inactive

====

# procedureText: NCI Yeast Anticancer Drug Screen. Data for the mec2-1 strain (AID 157)
# conditionParameters: S. cerevisiae mec2-1 strain, at 5.0 µM (retest, dose inferred, filed as 0.5), active compounds read high
Compounds without any hit were thinned out: in the full panel of roughly 79,000, 15% have a hit.
valueType: growth inhibition (%)
Return type: number; implicit unit %.

>>> quantitativereadout("Cc1ccc(NC(=S)SCc2ccc(Cl)cc2)cc1Cl")
19
>>> quantitativereadout("Cc1cc(Cl)ccc1N1C(=O)C(=O)C(c2nc3ccccc3o2)C(=O)C1=O")
21
>>> quantitativereadout("CCNC(=S)NC1CCCCCCCCCCC1")
99
>>> quantitativereadout("Nc1ccc(C(=O)NN2C(=O)C(Cl)C2c2cc(Br)cc(Br)c2O)cc1 (stereo not given)")
-12

Here is another compound to look at.
q: Return the recorded growth inhibition value; entry: "CCCCCCC[n+]1ccc(C(=O)c2ccccc2)cc1"
a: 100
